All values here come from patent US7138361B2.

Tested on: morningglory (Ipomoea hederacea)
Assay: Test C preemergence
Type: in vivo
Conditions: preemergence, Rate 62 g/ha, scale 0 to 100
property_label: Plant response rating, Morningglory
Enter a number only.

Would you please look over these solved cases?
>>> reading("Cc1cc(C)nc(N2CCC(n3ccc(C(C)(C)C)n3)C2=O)c1 (stereo not drawn)")
30
>>> reading("CCC(C)c1ccn(C2CCN(c3ccc(Cl)c(OC)c3)C2=O)n1 (stereo not drawn)")
60
>>> reading("CCC(C)c1ccn(C2OCN(c3cccc(OC(F)F)c3)C2=O)n1 (stereo not drawn)")
0

q: Need Plant response rating, Morningglory, item CCCC(C)c1ccn(C2OCN(c3cccc(OC(F)F)c3)C2=O)n1 (stereo not drawn)
a: 0

q: So what does the record say about Plant response rating, Morningglory for CCOc1cccc(N2CCC(n3ccc(C(C)(C)C)n3)C2=O)c1 (stereo not drawn) ?
a: 70

q: Please give the measured Plant response rating, Morningglory for this molecule: CSc1cccc(N2CCC(n3ccc(C(C)(C)C)n3)C2=O)c1 (stereo not drawn)
a: 0
